Data provenance is patent US20210214560A1.

Residual rate of compound values by entry
Test: Evaluation 2 of heat stability, powder heated at 200° C. for 5 minutes
Type: physicochemical
Settings: oven 200° C. for 5 minutes, A2/A0×100, absorbance in tetrahydrofuran
Procedure: Heat stability of each compound was evaluated by the following procedure. 10 mg of the powder of each compound was dissolved in 500 mL of tetrahydrofuran, and the absorption spectrum was measured to obtain a reference absorbance (A0). […] The entire amount of the powder after heating was dissolved in 500 mL of tetrahydrofuran, and the absorption spectrum was measured to obtain an absorbance (A2) after the heating test. […]
Quick reminder: number only, in %, skip the unit.

Recorded results for 4 compounds are shown here.
Need Residual rate of compound, item CCCCCC1(C)Nc2cccc3ccc(N=Nc4ccc(N=Nc5ccccc5Cl)c5ccccc45)c(c23)N1 (centres unmarked) [(3-10)]
88

What about CC1(C)Nc2cccc3ccc(N=Nc4ccc(N=Nc5ccccc5Cl)c5ccccc45)c(c23)N1 [(3-1)] ?
83

Next record, please: CCCCC1(C)Nc2cccc3ccc(N=Nc4ccc(N=Nc5ccccc5Cl)c5ccccc45)c(c23)N1 (centres unmarked) [(3-8)]
87

Would you kindly repeat that for CC1(C)Nc2cccc3ccc(N=Nc4ccc(N=Nc5ccccc5)c5ccccc45)c(c23)N1 [Comparative compound D, reference compound] ?
65

***
Query: Residual rate of compound; subject: CC1(C)Nc2cccc3ccc(N=Nc4ccc(N=Nc5ccccc5F)c5ccccc45)c(c23)N1 [(3-2)]
85

###

Assay: Evaluation of maximum absorption wavelength (absorption spectrum in tetrahydrofuran solution)
Type: physicochemical
Settings: 1×10^−6 mol/L, optical path length 10 mm (Table 9)
Listed here: items and their measured Absorption maximum wavelength.
Kindly answer with a numeric value in nm, unit omitted.

For the molecule shown here, CCCC1(C)Nc2cccc3ccc(N=Nc4ccc(N=Nc5ccccc5Cl)c5ccccc45)c(c23)N1 (stereo not drawn) [Compound (3-7)] , give the reported Absorption maximum wavelength.
617

Please answer likewise for CCCCCC1(C)Nc2cccc3ccc(N=Nc4ccc(N=Nc5ccccc5Cl)c5ccccc45)c(c23)N1 (stereo not drawn) [(3-10)]
615

---
So what's the measured Absorption maximum wavelength for this one? CC1(C)Nc2cccc3ccc(N=Nc4ccc(N=Nc5ccccc5F)c5ccccc45)c(c23)N1 [(3-2)]
608

// next record COC(=O)c1ccccc1N=Nc1ccc(N=Nc2ccc3cccc4c3c2NC(C)(C)N4)c2ccccc12 [(3-3)]
586

# iterate: CC1(C)Nc2cccc3ccc(N=Nc4ccc(N=Nc5ccccc5C#N)c5ccccc45)c(c23)N1 [(3-4)]
638

Next record, please: CC1(C)Nc2cccc3ccc(N=Nc4ccc(N=Nc5ccccc5[N+](=O)[O-])c5ccccc45)c(c23)N1 [(3-5)]
627

Another molecule to check: CC(C)C1(C)Nc2cccc3ccc(N=Nc4ccc(N=Nc5ccccc5Cl)c5ccccc45)c(c23)N1 (stereo not drawn) [(3-9)]
614

Try this molecule too: CC1(C)Nc2cccc3c(N=Nc4ccc(N=Nc5ccccc5)c5ccccc45)ccc(c23)N1 [Comparative compound C, reference compound]
607

Follow-up item: CC1(C)Nc2cccc3ccc(N=Nc4ccc(N=Nc5ccccc5Cl)c5ccccc45)c(c23)N1 [(3-1)]
612

And CCCCC1(C)Nc2cccc3ccc(N=Nc4ccc(N=Nc5ccccc5Cl)c5ccccc45)c(c23)N1 (stereo not drawn) [(3-8)] ?
616

Let us now turn to CC(=O)c1ccccc1N=Nc1ccc(N=Nc2ccc3cccc4c3c2NC(C)(C)N4)c2ccccc12 [(3-6)]
615

Can you handle CC1(C)Nc2cccc3ccc(N=Nc4ccc(N=Nc5ccccc5)c5ccccc45)c(c23)N1 [Comparative compound D, reference compound] next?
599
